Cited source: ChEMBL document CHEMBL4190295

# Test system: P388
# PROCEDURE_DETAILS: Cytotoxicity against mouse P388 cells assessed as reduction in cell viability by SRB assay
# Format: functional, cell-based
Please provide measured pIC50 for the entries that follow.
// pIC50 here means minus log10 of the molar concentration (mol/L)

Can you look up the measured pIC50 of `CC(=O)O[C@@H]1CC[C@]2(C)[C@H](CC[C@]3(CNc4ccc(Br)cc4)O[C@H](C4=CCOC4=O)C[C@H]32)[C@]1(C)CO[Si](C)(C)C(C)(C)C` for me?
5.19

Record: `CC(=O)OC[C@@]1(C)[C@H]2CC[C@]3(CNc4ccccc4F)O[C@H](C4=CCOC4=O)C[C@H]3[C@]2(C)CC[C@H]1OC(C)=O`
5.12

Let us now turn to `CC(=O)O[C@@H]1CC[C@]2(C)[C@H](CC[C@]3(CNc4ccccc4F)O[C@H](C4=CCOC4=O)C[C@H]32)[C@]1(C)CO[Si](C)(C)C(C)(C)C`
5.34

Repeat for the following compound: `COc1ccc(NC[C@]23CC[C@@H]4[C@](C)(COC(c5ccccc5)(c5ccccc5)c5ccccc5)[C@H](OC(C)=O)CC[C@@]4(C)[C@@H]2C[C@@H](C2=CCOC2=O)O3)cc1OC`
4.52

Okay, and `COc1ccc(NC[C@]23CC[C@@H]4[C@](C)(COC(C)=O)[C@H](OC(C)=O)CC[C@@]4(C)[C@@H]2C[C@@H](C2=CCOC2=O)O3)cc1OC` ?
4.54
